- PROTOCOL TEXT: Microsomal stability assay, human liver microsomes
- Assay type: in vitro ADME
- CONDITIONS: vs respective parent (8a, 8i, 8n or 8k)
MEASURED QUANTITY: Increase in half-life (HLM) relative to parent ligand

>>> result("[2H]C([2H])([2H])Oc1cccc(-n2nc3c4cc(Cl)ccc4[nH]cc-3c2=O)c1 [Compound 8j]")
"three-fold"
>>> result("[2H]C([2H])([2H])Oc1ccc2c3nn(-c4ccc(OC)cc4)c(=O)c-3c[nH]c2c1 [Compound 8c]")
"three-fold"
>>> result("[2H]C([2H])([2H])Oc1ccc(-n2nc3c4ccc(OC)cc4[nH]cc-3c2=O)cc1 [Compound 8b]")
"2.5 fold"

---

- PROTOCOL TEXT: Pharmacokinetic study, IP 10 mg/kg, plasma and brain
- Type: in vivo, rat
- CONDITIONS: rats
MEASURED QUANTITY: Brain concentration (Cmax) compared with parent 8a

>>> result("[2H]C([2H])([2H])Oc1ccc(-n2nc3c4ccc(OC)cc4[nH]cc-3c2=O)cc1 [Compound 8b]")
"almost two-fold increase"
>>> result("[2H]C([2H])([2H])Oc1ccc2c3nn(-c4ccc(OC)cc4)c(=O)c-3c[nH]c2c1 [Compound 8c]")
"almost two-fold increase"
>>> result("[2H]C([2H])([2H])Oc1ccc(-n2nc3c4ccc(OC([2H])([2H])[2H])cc4[nH]cc-3c2=O)cc1 [Compound 8d]")
"almost two-fold increase"

---

- EXPERIMENTAL TARGET: GABAAR α6β3γ2 subtype (Rattus norvegicus, UniProt P18508+P30191+P63079)
- Sequence (P30191 20-453): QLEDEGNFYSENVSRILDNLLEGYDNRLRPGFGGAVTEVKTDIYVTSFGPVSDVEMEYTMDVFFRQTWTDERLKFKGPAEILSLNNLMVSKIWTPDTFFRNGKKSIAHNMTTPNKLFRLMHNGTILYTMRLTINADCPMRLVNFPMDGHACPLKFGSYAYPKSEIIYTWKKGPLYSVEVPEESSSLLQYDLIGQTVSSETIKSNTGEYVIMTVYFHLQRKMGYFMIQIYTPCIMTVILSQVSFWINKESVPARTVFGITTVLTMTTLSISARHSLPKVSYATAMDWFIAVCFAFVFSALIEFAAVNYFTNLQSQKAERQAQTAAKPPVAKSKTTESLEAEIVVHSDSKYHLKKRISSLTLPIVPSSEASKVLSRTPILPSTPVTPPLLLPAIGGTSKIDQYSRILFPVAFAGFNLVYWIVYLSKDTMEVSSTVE
- Sequence (P63079 26-473): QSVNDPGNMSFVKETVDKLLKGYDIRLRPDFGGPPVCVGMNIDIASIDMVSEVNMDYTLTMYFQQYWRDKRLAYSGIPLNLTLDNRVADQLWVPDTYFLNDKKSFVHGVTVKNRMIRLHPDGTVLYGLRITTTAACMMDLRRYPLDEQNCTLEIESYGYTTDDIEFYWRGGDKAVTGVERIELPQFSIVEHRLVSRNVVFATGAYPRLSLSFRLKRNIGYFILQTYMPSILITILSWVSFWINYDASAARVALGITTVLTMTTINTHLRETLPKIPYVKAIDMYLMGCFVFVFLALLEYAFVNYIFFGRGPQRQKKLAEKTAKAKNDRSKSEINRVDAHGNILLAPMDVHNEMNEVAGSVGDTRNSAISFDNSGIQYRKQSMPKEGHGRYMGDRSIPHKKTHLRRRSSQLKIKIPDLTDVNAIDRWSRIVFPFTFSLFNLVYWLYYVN
- Sequence (P18508 39-466): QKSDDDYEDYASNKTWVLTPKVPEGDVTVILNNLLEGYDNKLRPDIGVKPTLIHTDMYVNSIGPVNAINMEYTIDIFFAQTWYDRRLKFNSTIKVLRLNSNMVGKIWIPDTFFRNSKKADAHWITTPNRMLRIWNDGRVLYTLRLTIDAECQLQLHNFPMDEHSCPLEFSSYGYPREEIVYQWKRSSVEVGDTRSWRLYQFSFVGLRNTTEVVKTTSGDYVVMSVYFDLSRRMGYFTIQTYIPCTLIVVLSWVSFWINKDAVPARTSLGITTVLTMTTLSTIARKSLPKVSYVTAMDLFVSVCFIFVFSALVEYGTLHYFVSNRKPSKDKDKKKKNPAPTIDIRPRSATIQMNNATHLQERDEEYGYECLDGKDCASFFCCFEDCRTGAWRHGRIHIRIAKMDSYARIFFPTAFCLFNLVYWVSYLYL
- PROTOCOL TEXT: Electrophysiological assay in Xenopus oocytes, modulation of GABA EC3 currents
- Format: cell-based
MEASURED QUANTITY: Efficacy / activity at the α6β3γ2 subtype (in words)

>>> result("COc1ccc(-n2nc3c4cnc(OC)cc4[nH]cc-3c2=O)cc1 [Compound 13i]")
"retained some efficacy"
>>> result("[2H]C([2H])([2H])Oc1ccc2c3nn(-c4ccc(OC)nc4)c(=O)c-3c[nH]c2c1 [Compound 13c]")
"retained some efficacy"
>>> result("[2H]C([2H])([2H])Oc1ccc(-n2nc3c4ccc(OC)cc4[nH]cc-3c2=O)cn1 [Compound 13b]")
"retained some efficacy"

---

- PROTOCOL TEXT: Microsomal stability assay, mouse liver microsomes
- Format: in vitro ADME
- CONDITIONS: vs respective parent (8a, 8i, 8n or 8k)
MEASURED QUANTITY: Increase in half-life (MLM) relative to parent ligand

>>> result("[2H]C([2H])([2H])Oc1cccc(-n2nc3c4cc(Cl)ccc4[nH]cc-3c2=O)c1")
"two-fold"
>>> result("COc1ccc(-n2nc3c4cc(Cl)ccc4[nH]cc-3c2=O)cn1 [Compound 13e]")
"two-fold"
